Provide the recorded recombinant UMI read abundance (log10) for the entries that follow.
protocol_description: recombinant UMI read abundance after kanamycin selection (control-corrected) (log10(CPM+1)); higher = more efficient recombination; extreme values may be limits of the assay; sequences stand for … in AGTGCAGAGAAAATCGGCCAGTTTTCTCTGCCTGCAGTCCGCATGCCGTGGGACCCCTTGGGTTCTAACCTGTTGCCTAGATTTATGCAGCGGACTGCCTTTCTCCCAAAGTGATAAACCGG…AGGTTGGTTTCACT; site = the 11-nt donor
Answers are plain numbers.

Provide recombinant UMI read abundance (log10) values for the following items, in order.
1. GATTGGTCATGGACCGGTTTTCCCGGTAATCCGTATTTGAC (site GATTGGCCTGT)
2. CGGGAGTCATGGACCGGTTTTCCCGGTAATCCGTATTTGGC (site CGGGAGTCTGG)
3. ACGAAGACATGGACCGGTTTTCCCGGTAATCCGTATTTGCG (site ACGAAGACTCG)
4. AACTTGACATGGACCGGTTTTCCCGGTAATCCGTATTTGCT (site TACTTGACTAG)
5. CTAGTATCATGGACCGGTTTTCCCGGTAATCCGTATTTGAG (site CTAGTATCTCT)

Response:
[0, 0.911, 2.77, 1.24, 2.61]

---

Give measured recombinant UMI read abundance (log10) for each item. Keep answers brief.
protocol_description: recombinant UMI read abundance after kanamycin selection (control-corrected) (log10(CPM+1)); higher = more efficient recombination; extreme values may be limits of the assay; sequences stand for … in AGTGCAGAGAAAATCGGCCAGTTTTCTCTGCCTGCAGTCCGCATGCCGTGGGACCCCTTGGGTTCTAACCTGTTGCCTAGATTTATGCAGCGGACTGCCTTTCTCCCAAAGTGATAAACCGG…AGGTTGGTTTCACT; site = the 11-nt donor
Numbers only.

Prompt: Form field: reported recombinant UMI read abundance (log10) of TGCGGCCCATGGACCGGTTTTCCCGGTAATCCGTATTTGCG (site TGCGGCCCTCG)
Response: 0.0374

Prompt: Consider next the sequence GTACTAACATGGACCGGTTTTCCCGGTAATCCGTATTTGGA (site CTACTAACTTC) in the same way.
Response: 0.455

Prompt: Also check CTAGGTACATGGACCGGTTTTCCCGGTAATCCGTATTTGAC (site ATAGGTACTGT)
Response: 0

Prompt: Then what about the sequence CAATTCCCATGGACCGGTTTTCCCGGTAATCCGTATTTGCA (site CAATTCCCTGG) ?
Response: 0

Let us examine a further case.
Prompt: Which recombinant UMI read abundance (log10) is reported for this sequence? GCCACGCCATGGACCGGTTTTCCCGGTAATCCGTATTTGTA (site GCCAGGCCTTA)
Response: 0.013

---

What recombinant barcode read abundance (log10) was measured for each of the following?
protocol_description: recombinant barcode read abundance after kanamycin selection (control-corrected) (log10(CPM+1)); higher = more efficient recombination; sequences stand for … in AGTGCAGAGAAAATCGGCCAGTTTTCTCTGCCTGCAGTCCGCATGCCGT…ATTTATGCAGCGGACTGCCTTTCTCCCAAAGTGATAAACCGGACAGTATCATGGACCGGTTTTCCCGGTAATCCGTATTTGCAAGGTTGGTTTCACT; site = the 11-nt target
One number for each entry.

Sample records with recombinant barcode read abundance (log10):
Prompt: I'd like to know its recombinant barcode read abundance (log10). The sequence in question is GAGTCCTACTGGGTTCTAACCTGTTGCCTGT [GAGTCCTCTAG_LTGcore_AC_RTGcore_AC] (site GAGTCCTCTAG) (LTG core: AC, RTG core: AC)
Response: 0.011

Prompt: Subsequent entry: AGTCTTATGTGGGTTCTAACCTGTTGCCACA [AGTCTTACTTG_LTGcore_TG_RTGcore_TG] (site AGTCTTACTTG) (LTG core: TG, RTG core: TG)
Response: 0.0473

Prompt: Field entry: TTATAAACTTGGGTTCTAACCTGTTGCCTGG [TTATAAACTAG_LTGcore_CT_RTGcore_CC] (site TTATAAACTAG) (LTG core: CT, RTG core: CC)
Response: 0.574

Parameters: items (list). Returns: recombinant barcode read abundance (log10) for each item.
1. AGGAGGTCTTGGGTTCTAACCTGTTGCCTGG [AGGAGGTCTAG_LTGcore_CT_RTGcore_CC] (site AGGAGGTCTAG) (LTG core: CT, RTG core: CC)
2. GAGTCCTAGTGGGTTCTAACCTGTTGCCTAG [GAGTCCTCTAG_LTGcore_AG_RTGcore_CT] (site GAGTCCTCTAG) (LTG core: AG, RTG core: CT)
3. GGTGCCCCTTGGGTTCTAACCTGTTGCCGGG [GGTGCCCCTCG_LTGcore_CT_RTGcore_CC] (site GGTGCCCCTCG) (LTG core: CT, RTG core: CC)
4. GAGTCCAGTTGGGTTCTAACCTGTTGCGTAG [GAGTCCACTAC_LTGcore_GT_RTGcore_CT] (site GAGTCCACTAC) (LTG core: GT, RTG core: CT)
5. GGACACCATTGGGTTCTAACCTGTTGCCTAT [GGACACCCTAG_LTGcore_AT_RTGcore_AT] (site GGACACCCTAG) (LTG core: AT, RTG core: AT)
6. GAGGCCTGGTGGGTTCTAACCTGTTGCCAAG [GAGGCCTCTTG_LTGcore_GG_RTGcore_CT] (site GAGGCCTCTTG) (LTG core: GG, RTG core: CT)
7. TCGCGACACTGGGTTCTAACCTGTTGCCGGT [TCGCGACCTCG_LTGcore_AC_RTGcore_AC] (site TCGCGACCTCG) (LTG core: AC, RTG core: AC)

Response:
[0.551, 0.445, 0.295, 0.283, 0.145, 0.103, 0.102]

Look at each sequence and report its recombinant barcode read abundance (log10).
1. AGGCCTCCTTGGGTTCTAACCTGTTGCCTAG [AGGCCTCCTAG_LTGcore_CT_RTGcore_CT] (site AGGCCTCCTAG) (LTG core: CT, RTG core: CT)
2. TGATACCTTTGGGTTCTAACCTGTTGCGTAG [TGATACCCTAC_LTGcore_TT_RTGcore_CT] (site TGATACCCTAC) (LTG core: TT, RTG core: CT)
3. TGATACCTCTGGGTTCTAACCTGTTGCGTAG [TGATACCCTAC_LTGcore_TC_RTGcore_CT] (site TGATACCCTAC) (LTG core: TC, RTG core: CT)

Response:
1.32
0.0115
0.146

Please give recombinant barcode read abundance (log10) for each item listed below.
1. TGTATTCATTGGGTTCTAACCTGTTGCCTAT [TGTATTCCTAG_LTGcore_AT_RTGcore_AT] (site TGTATTCCTAG) (LTG core: AT, RTG core: AT)
2. GAGCCCACATGGGTTCTAACCTGTTGCCTAG [GAGCCCACTAG_LTGcore_CA_RTGcore_CT] (site GAGCCCACTAG) (LTG core: CA, RTG core: CT)
3. GGGCGTGCTTGGGTTCTAACCTGTTGCCTGG [GGGCGTGCTAG_LTGcore_CT_RTGcore_CC] (site GGGCGTGCTAG) (LTG core: CT, RTG core: CC)
4. AAACACAGCTGGGTTCTAACCTGTTGCCTAG [AAACACACTAG_LTGcore_GC_RTGcore_CT] (site AAACACACTAG) (LTG core: GC, RTG core: CT)
5. GGGCGTGTCTGGGTTCTAACCTGTTGCCTAG [GGGCGTGCTAG_LTGcore_TC_RTGcore_CT] (site GGGCGTGCTAG) (LTG core: TC, RTG core: CT)
6. TAAGAATCATGGGTTCTAACCTGTTGCCTTG [TAAGAATCTAG_LTGcore_CA_RTGcore_CA] (site TAAGAATCTAG) (LTG core: CA, RTG core: CA)

Response:
1. 0.144
2. 0.304
3. 0.301
4. 0.0255
5. 0.241
6. 1.03
